Experiment: In vivo pharmacokinetics in male CD1 mice
Design: species or system mouse
Conditions: mouse; Table 6; plasma clearance, IV 0.5 mg/kg, male CD1 mice; read-out: CLp (L/h/kg) IV (converted)
Label Y when clearance is strictly below 6 L/h/kg; otherwise label N.

# compound, answerLabel
data = [
    ("O=C(COc1ccc2ccccc2c1)NCCc1nc2ccccc2[nH]1 [Compound 35]", "Y"),
    ("Cc1ccccc1OCC(=O)NCCc1nc2ccccc2o1 [Compound 37]", "N"),
    ("C=CCCn1c(CCNC(=O)COc2ccccc2Cl)nc2ccccc21 [Compound 38]", "N"),
    ("O=C(COc1ccccc1Br)NCCc1nc2ccccc2[nH]1 [Compound 18]", "Y"),
]

---

Experiment: In vitro metabolic stability in mouse liver microsomes
Assay type: in vitro ADME
Details: mouse, liver microsomes, Table 5, CLint/fu, read-out: CLint_u (L/h/kg) mouse (converted)
measure: log10 CLint scaled at 5 µM (log10 of the value in L/h/kg)

# molecule, log10 CLint scaled at 5 µM
rows = [
    ("C=CCCn1c(CCNC(=O)COc2ccccc2Cl)nc2ccccc21 [Compound 38]", 3.31),
    ("O=C(CCc1ccccc1Br)NCCc1nc2ccccc2[nH]1 [Compound 36]", 2.97),
    ("O=C(COc1ccc2ccccc2c1)NCCc1nc2ccccc2[nH]1 [Compound 35]", 3.07),
    ("Cc1ccccc1OCC(=O)NCCc1nc2ccccc2o1 [Compound 37]", 2.94),
    ("O=C(COc1ccccc1[N+](=O)[O-])NCCc1nc2ccccc2[nH]1 [Compound 32]", 2.91),
    ("N#Cc1ccccc1OCC(=O)NCCc1nc2ccccc2[nH]1 [Compound 31]", 1.94),
    ("O=C(COc1ccccc1Br)NCCc1nc2ccccc2[nH]1 [Compound 18]", 2.52),
    ("O=C(Cn1ccnc1[N+](=O)[O-])NCc1ccccc1 [BZ, benznidazole, reference compound]", 0.64),
    ("Cc1ccccc1OCC(=O)NCCc1nc2ccccc2[nH]1 [Compound 17]", 2.59),
    ("O=C(COc1ccc(Br)cc1)NCCc1nc2ccccc2[nH]1 [Compound 33]", 2.29),
]

---

Assay: Parallel artificial membrane permeability assay (PAMPA)
Assay type: in vitro ADME
Design: unit: 1e-6 cm/s
Settings: Table S5; unit not given

# molecule, PAMPA
data = [
    ("O=C(COc1cccc([N+](=O)[O-])c1)NCCc1nc2ccccc2[nH]1", 2.17),
    ("CC(=O)Nc1ccc(OCC(=O)NCCc2nc3ccccc3[nH]2)cc1", 0.21),
    ("O=C(COc1ccccc1)NCCc1nc2ccccc2n1Cc1ccccc1", 8.72),
    ("COc1ccc2cc(OCC(=O)NCCc3nc4ccccc4[nH]3)ccc2c1", 0.34),
    ("CC(=O)Nc1cccc(OCC(=O)NCCc2nc3ccccc3[nH]2)c1", 0.17),
    ("O=C(Cn1ccnc1[N+](=O)[O-])NCc1ccccc1 [BZ, benznidazole, reference compound]", 3.17),
    ("NC(=O)Cn1c(CCNC(=O)COc2ccccc2)nc2ccccc21", 0.71),
    ("O=C(COc1ccc2cc(O)ccc2c1)NCCc1nc2ccccc2[nH]1", 0.21),
    ("O=C(COc1ccccc1)NCCc1nc2ccccc2n1CCCOc1ccccc1", 2.29),
]
